Task for the reader: assign each of the following compounds its reported inhibition in vivo at 8 mg/kg.
# Tested on: Mus musculus
# test: Antitumor activity in CF1 mice bearing Ehrlich ascites carcinoma measured as percentage inhibition at 8 mg/kg
# Format: functional

See these solved cases before continuing.
{"structure string": "CC(=O)NC1=C(Cl)C(=O)c2c(cnn2C)C1=O", "inhibition in vivo at 8 mg/kg": "61.7%"}
{"structure string": "CC(=O)NC1=C(N2CC2)C(=O)c2c(cnn2C)C1=O", "inhibition in vivo at 8 mg/kg": "25.8%"}
{"structure string": "CC(=O)NC1=C(Cl)C(=O)c2[nH]ncc2C1=O", "inhibition in vivo at 8 mg/kg": "46.9%"}

For the compound CC(=O)NC1=C(Cl)C(=O)c2c(cnn2C(C)=O)C1=O , what inhibition in vivo at 8 mg/kg is on record?
25.5%
